Measured inhibition values are reported for all entries that follow.
# SUBJECT OF TEST: recombinant human 17β-hydroxysteroid dehydrogenase type 1 (Homo sapiens)
# Construct: made in house; host or cells: Sf9 insect cells (baculovirus, Bac to Bac Expression System)
# Sequence (P14061 1-328): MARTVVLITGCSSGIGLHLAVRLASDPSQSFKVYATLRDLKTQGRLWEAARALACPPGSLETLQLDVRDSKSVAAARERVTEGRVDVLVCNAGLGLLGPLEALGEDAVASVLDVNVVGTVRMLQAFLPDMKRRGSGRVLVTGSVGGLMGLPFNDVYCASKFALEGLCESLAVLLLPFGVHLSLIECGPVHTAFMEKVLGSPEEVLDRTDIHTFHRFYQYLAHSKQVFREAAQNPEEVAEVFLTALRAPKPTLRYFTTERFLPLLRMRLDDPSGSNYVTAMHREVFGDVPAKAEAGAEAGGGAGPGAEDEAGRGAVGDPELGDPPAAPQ
# ASSAY DETAILS: Inhibition of recombinant human 17β-hydroxysteroid dehydrogenase type 1 (conversion of 3H-estrone to estradiol, HPLC radiodetection)
# Format: biochemical
# TEST CONTEXT: inhibitor 1 µm; 30 nM 3H-estrone, 1 mM NADPH, 30 min at RT; read-out: Inhibition of rec 17β-HSD1
OBSERVED PROPERTY: inhibition (%)

{"SMILES TEXT": "C[C@]12CC[C@@H]3c4ccc(O)cc4CC[C@H]3[C@@H]1[C@@H](CCCC(=O)N1CCOCC1)CC2(F)F", "SUBJECT OF TEST": "recombinant human 17β-hydroxysteroid dehydrogenase type 1 (Homo sapiens)", "VALUE OBSERVED": 85}
{"SMILES TEXT": "COc1cc2c(cc1O)CC[C@H]1[C@@H]3[C@@H](CCCC(=O)NC4CCCCC4)CC(=O)[C@@]3(C)CC[C@H]21", "SUBJECT OF TEST": "recombinant human 17β-hydroxysteroid dehydrogenase type 1 (Homo sapiens)", "VALUE OBSERVED": 73.2}
{"SMILES TEXT": "Cc1cccc2c(CCNC(=O)CC[C@@H]3CC(F)(F)[C@@]4(C)CC[C@@H]5c6ccc(O)cc6CC[C@H]5[C@H]34)c[nH]c12", "SUBJECT OF TEST": "recombinant human 17β-hydroxysteroid dehydrogenase type 1 (Homo sapiens)", "VALUE OBSERVED": 76.9}

The reported measurements were obtained from patent EP1888615B1.
